target-of-assay: Cell division control protein 42 homolog (Homo sapiens)
test-description: wildtype Cdc42 GTP-binding inhibitors, SAR follow-up, biochemical, pyrazoline analogs, multiplex bead flow cytometry, Ki (AID 2019)
measurement-conditions: inactive by the depositor's call
recorded-metric: EC50 (µM)

Q: May I ask what EC50 has been recorded for Cc1ccccc1N1N=C(c2ccccc2)CC1c1ccc(N(C)C)cc1 (configuration not stated) ?
A: 30

Q: Repeat with Clc1ccc(N2N=C(c3ccccc3)CC2c2ccccc2)cc1 (configuration not stated)
A: 30

Q: Repeat with COc1ccc(C2=NN(c3ccccc3)C(c3ccccc3C(F)(F)F)C2)cc1 (configuration not stated)
A: 34.4

Q: Repeat with COc1ccc(C2CC(c3ccc(C(F)(F)F)cc3)=NN2c2ccc(S(N)(=O)=O)cc2)cc1 (configuration not stated)
A: 30

Q: Repeat with O=[N+]([O-])c1ccc([N+]2=N[C-](c3ccccc3)CC2c2ccc(O)cc2)cc1 (configuration not stated)
A: 30

Q: Repeat with COc1ccc(C2CC(c3ccc(F)cc3)=NN2c2ccccc2)cc1OC (configuration not stated)
A: 30

Q: Repeat with NS(=O)(=O)c1ccc(N2N=C(c3ccc(Br)cc3)CC2c2ccc(F)cc2)cc1 (configuration not stated)
A: 30

----------
target-of-assay: Cell division control protein 42 homolog (Homo sapiens, UniProt P60953)
Sequence (P60953 whole entry): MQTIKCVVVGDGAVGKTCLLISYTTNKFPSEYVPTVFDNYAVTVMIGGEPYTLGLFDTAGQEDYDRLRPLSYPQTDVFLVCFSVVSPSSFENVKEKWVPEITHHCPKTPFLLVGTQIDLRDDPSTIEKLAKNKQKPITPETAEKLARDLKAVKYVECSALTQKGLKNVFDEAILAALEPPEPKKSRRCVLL
test-description: wildtype Cdc42 GTP-binding inhibitors, SAR follow-up, biochemical, pyrazoline analogs, multiplex bead flow cytometry, Ki (AID 2019)
recorded-metric: EC50 (µM)

Q: May I ask what EC50 has been recorded for COc1ccc(C2CC(c3cccc(OC)c3)=NN2c2ccc(S(N)(=O)=O)cc2)cc1 (stereo not given) ?
A: 1.46

Q: Repeat with COc1ccc(C2CC(c3cccc(Br)c3)=NN2c2ccc(S(N)(=O)=O)cc2)cc1 (stereo not given) [UNM-0000306113]
A: 2.07

Q: Repeat with NS(=O)(=O)c1ccc(N2N=C(c3ccccc3)CC2c2ccc(Cl)cc2)cc1 (stereo not given)
A: 2.76

Q: Repeat with COc1ccc(C2CC(c3ccc(Cl)cc3)=NN2c2ccc(S(N)(=O)=O)cc2)cc1 (stereo not given)
A: 2.3

1 = NS(=O)(=O)c1ccc(N2N=C(c3ccc(Cl)cc3)CC2c2ccccc2)cc1 (stereo not given)
2 = COc1ccc(C2CC(c3ccc(C)cc3)=NN2c2ccc(S(N)(=O)=O)cc2)cc1 (stereo not given)
3 = O=S(=O)(O)c1ccc(N2N=C(c3ccccc3)CC2c2ccccc2)cc1 (stereo not given) [UNM-0000305834]
4 = COc1ccc(C2CC(c3cccnc3)=NN2c2ccc(S(N)(=O)=O)cc2)cc1 (stereo not given)
Q: Put these in order: smallest EC50 first, largest last. Please write the labels in the order that was asked for.
A: 2, 1, 4, 3

----------
target-of-assay: Cell division control protein 42 homolog (Homo sapiens)
test-description: wildtype Cdc42 GTP-binding inhibitors, SAR follow-up, biochemical, pyrazoline analogs, multiplex bead flow cytometry, Ki (AID 2019)
measurement-conditions: inactive by the depositor's call
recorded-metric: EC50 (µM)

Q: Short answer please: EC50, Cell division control protein 42 homolog (Homo sapiens), entry COc1ccc(C2C[C-](c3ccccc3)N=[N+]2c2ccc([N+](=O)[O-])cc2)cc1 (centres undefined)
A: 30

Q: Repeat with COc1ccc(C2CC(c3ccccc3C(F)(F)F)=NN2c2ccc(S(N)(=O)=O)cc2)cc1 (centres undefined) [KUC103474N]
A: 30

Q: Repeat with FC(F)(F)c1cccc(N2N=C(c3ccc(Cl)cc3)CC2c2ccccc2Cl)c1 (centres undefined) [UNM-0000305859]
A: 30

Q: Repeat with COc1ccc(C2=NN(c3ccccc3F)C(c3ccc(F)cc3)C2)cc1 (centres undefined) [UNM-0000305860]
A: 30

Q: Repeat with COc1ccc(C2CC(c3ccc(Cl)cc3)=NN2c2ccccc2)cc1OC (centres undefined) [UNM-0000305858]
A: 30

I = Cc1cccc(N2N=C(c3ccccc3)CC2c2ccccc2)c1 (centres undefined) [UNM-0000305835]
II = COc1ccc(C2CC(c3ccc(N(C)C)cc3)=NN2c2ccc(S(N)(=O)=O)cc2)cc1 (centres undefined) [KUC103422N]
III = O=S(=O)(c1ccc(N2N=C(c3ccccc3)CC2c2ccccc2)cc1)C(F)F (centres undefined)
Q: Falling order of EC50, please. Please write the labels in the order that was asked for.
A: I, II, III
(I: 30 µM, II: 3.37 µM, III: 0.231 µM)

----------
target-of-assay: Cell division control protein 42 homolog (Homo sapiens)
test-description: wildtype Cdc42 GTP-binding inhibitors, SAR follow-up, biochemical, pyrazoline analogs, multiplex bead flow cytometry, Ki (AID 2019)
pEC50: −log10 of the molar value.
recorded-metric: pEC50

Before answering, review these 5 worked examples.
Q: Short answer please: pEC50, Cell division control protein 42 homolog (Homo sapiens), entry COc1ccc(C2CC(c3ccc(F)cc3)=NN2c2cccc(F)c2)cc1OC (centres undefined)
A: 4.68

Q: Repeat with COc1ccc(C2CC(c3ccc(F)cc3)=NN2c2ccc(S(N)(=O)=O)cc2)cc1 (centres undefined)
A: 5.37

Q: Repeat with COc1ccc(C2CC(c3ccccc3Cl)=NN2c2ccc(S(N)(=O)=O)cc2)cc1 (centres undefined)
A: 5.59

Q: Repeat with COc1ccc(C2CC(c3cccc(F)c3)=NN2c2ccc(S(N)(=O)=O)cc2)cc1 (centres undefined)
A: 5.54

Q: Repeat with COc1ccc(C2CC(c3ccc(Br)cc3)=NN2c2ccc(S(N)(=O)=O)cc2)cc1 (centres undefined)
A: 5.52

1 = COc1ccc(C2CC(c3ccccc3F)=NN2c2ccc(S(N)(=O)=O)cc2)cc1 (centres undefined)
2 = NS(=O)(=O)c1ccc(N2N=C(c3ccccc3)CC2c2ccc(Br)cc2)cc1 (centres undefined)
Q: Parameter metric = pEC50. Return the lower-valued option from 1 and 2 . Output the label that corresponds to your choice.
A: 1
(1: 5.56, 2: 5.97)

a = COc1ccc(C2CC(c3cccc(Cl)c3)=NN2c2ccc(S(N)(=O)=O)cc2)cc1 (centres undefined)
b = COc1ccc(C2CC(c3cccc(C(F)(F)F)c3)=NN2c2ccc(S(N)(=O)=O)cc2)cc1 (centres undefined)
Q: Between the two listed entries a and b , which has its pEC50 at the higher number? Output the label that corresponds to your choice.
A: a

----------
target-of-assay: Cell division control protein 42 homolog (Homo sapiens)
test-description: wildtype Cdc42 GTP-binding inhibitors, SAR follow-up, biochemical, pyrazoline analogs, multiplex bead flow cytometry, Ki (AID 2019)
measurement-conditions: inactive by the depositor's call
pEC50: −log10 of the molar value.
recorded-metric: pEC50

Q: May I ask what pEC50 has been recorded for COc1ccc(C2CC(c3ccccc3)=NN2c2ccc(C(N)=O)cc2)cc1 (stereo not given) [UNM-0000305870] ?
A: 4.52

A = Cc1ccc(-c2cc(C(F)(F)F)nn2-c2ccc(S(N)(=O)=O)cc2)cc1 [Celecoxib]
B = COc1ccc(-c2cc(-c3ccccc3)nn2-c2ccc(S(N)(=O)=O)cc2)cc1
Q: Parameter metric = pEC50. Return the lower-valued option from A and B . Output the label that corresponds to your choice.
A: A
(A: 4.52, B: 5.30)
